Ref: ChEMBL document CHEMBL1122944

Reported Potency values follow for various molecules
- target-desc: Histamine H2 receptor (Cavia porcellus) (UniProt P47747)
- Sequence (P47747 whole entry): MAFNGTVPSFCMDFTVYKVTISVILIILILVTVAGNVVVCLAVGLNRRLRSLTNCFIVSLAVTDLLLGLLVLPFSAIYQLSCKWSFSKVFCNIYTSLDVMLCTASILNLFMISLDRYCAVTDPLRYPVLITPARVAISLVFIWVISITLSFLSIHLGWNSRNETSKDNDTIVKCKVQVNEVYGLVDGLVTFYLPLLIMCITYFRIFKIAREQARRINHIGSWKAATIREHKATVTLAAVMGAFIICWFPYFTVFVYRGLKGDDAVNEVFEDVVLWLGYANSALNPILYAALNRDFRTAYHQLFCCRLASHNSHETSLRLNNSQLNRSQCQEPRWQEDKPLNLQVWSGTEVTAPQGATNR
- assay-info: Agonistic activity against histamine H2 receptor in guinea pig atrium (potency relative to histamine =1)
- Format: functional, tissue-based
- conditions: Cardiac atrium

Tell us which Potency value is on record for `N=C(NCCCc1c[nH]cn1)NCCCc1nccs1`
26.6

* * *

- target-desc: Histamine H2 receptor (Cavia porcellus) (UniProt P47747)
- assay-info: Percent maximum response against histamine H2 receptor in guinea pig atrium was evaluated
- Type: tissue-based
- conditions: Cardiac atrium
Reported Max response values follow for various compounds
Give a bare numeral; the unit % is implied.

- molecule-smiles: "C/N=C(\\N)NCCCCc1c[nH]cn1"
  target-desc: "Histamine H2 receptor (Cavia porcellus) (UniProt P47747)"
  Max response, %: 46

Could you now look at the following compound, please?
Quote Histamine H2 receptor (Cavia porcellus) (UniProt P47747) Max response for entry `Cc1[nH]cnc1CSCCNC(=N)NCCCc1c[nH]cn1` .
98.7
